# target or test system: Muscarinic acetylcholine receptor M3 (Cavia porcellus, UniProt Q8VH26)
# Sequence (Q8VH26 whole entry): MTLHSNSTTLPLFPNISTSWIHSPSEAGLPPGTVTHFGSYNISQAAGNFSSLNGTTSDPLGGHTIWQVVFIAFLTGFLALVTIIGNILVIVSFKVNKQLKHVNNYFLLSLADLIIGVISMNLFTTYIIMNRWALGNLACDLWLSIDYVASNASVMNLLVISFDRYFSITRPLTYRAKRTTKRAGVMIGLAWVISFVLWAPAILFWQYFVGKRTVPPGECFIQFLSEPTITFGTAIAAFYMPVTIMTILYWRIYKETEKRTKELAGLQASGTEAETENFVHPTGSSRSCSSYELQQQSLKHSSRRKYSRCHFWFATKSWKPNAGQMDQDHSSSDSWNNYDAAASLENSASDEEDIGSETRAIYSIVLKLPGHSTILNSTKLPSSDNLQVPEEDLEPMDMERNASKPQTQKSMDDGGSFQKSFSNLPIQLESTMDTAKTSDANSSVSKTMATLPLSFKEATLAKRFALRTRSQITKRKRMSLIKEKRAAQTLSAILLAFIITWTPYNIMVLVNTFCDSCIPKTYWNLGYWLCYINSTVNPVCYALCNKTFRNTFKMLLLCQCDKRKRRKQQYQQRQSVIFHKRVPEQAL
# experimental protocol: Antagonist activity at muscarinic M3 receptor in guinea pig trachea assessed as inhibition of electric field stimulated muscle contraction by measuring release of endogenous acetylcholine in presence of propranolol
outcome measure: EC50 (nM)
All answers are understood in nM, so give the number only.

## Task Write down EC50 measured for item "CS(=O)(=O)Nc1cc([C@@H](O)CNCCCCCCCCCN2CCC(OC(=O)Nc3ccccc3-c3ccc(O)c(Cl)c3)CC2)ccc1O"
## Result 12

----------
# experimental protocol: Therapeutic index, ratio of cardiovascular toxicity in dog to bronchodilatory activity in intratracheally dosed dog
# Format: organism-based, Canis lupus familiaris, Trachea
# condition label: in vivo, inhaled or intranasal, read-out: TI
outcome measure: selectivity ratio
The answer should be a number; do not append a unit.

## Task Write down selectivity ratio measured for item OCc1cc(C(O)CNCCCCCCOCCCCc2ccccc2)ccc1O (stereo unspecified)
## Result 3

----------
# key: entry, value: microsomal CLint
# experimental protocol: Drug metabolism of the compound in human liver microsomes assessed as glucuronidation in absence of NADPH and presence of microsomal activator Brij58 and UDPGA
All answers are understood in µL/min/mg, so give the number only.

Example results:
{"compound": "CS(=O)(=O)Nc1cc([C@@H](O)CNCCCCCCCCCN2CC[C@@H](OC(=O)Nc3ccccc3-c3ccc(O)c(Cl)c3)C2)ccc1O", "microsomal CLint, µL/min/mg": 51}
{"compound": "CS(=O)(=O)Nc1cc([C@@H](O)CNCCCCCCCCCN2CCC(OC(=O)Nc3ccc(F)cc3-c3ccc(O)c(Cl)c3)CC2)ccc1O", "microsomal CLint, µL/min/mg": 17}
{"compound": "CS(=O)(=O)Nc1cc([C@@H](O)CNCCCCCCCCCCN2CCC(OC(=O)Nc3ccccc3-c3ccc(O)c(Cl)c3)CC2)ccc1O", "microsomal CLint, µL/min/mg": 22}
{"compound": "CS(=O)(=O)Nc1cc([C@@H](O)CNCCCCCCCCCN2CCC(OC(=O)Nc3ccccc3-c3cc(F)c(O)cc3F)CC2)ccc1O", "microsomal CLint, µL/min/mg": 90}
{"compound": "CS(=O)(=O)Nc1cc([C@@H](O)CNCCCCCCCCCN2CCC(OC(=O)Nc3ccccc3-c3ccc(O)c(Cl)c3)CC2)ccc1O", "microsomal CLint, µL/min/mg": 24}
{"compound": "CS(=O)(=O)Nc1cc([C@@H](O)CNCCc2ccc(OCCN3CCC(OC(=O)Nc4ccccc4-c4ccc(O)c(Cl)c4)CC3)cc2)ccc1O", "microsomal CLint, µL/min/mg": 48}

## Task Write down microsomal CLint measured for item CS(=O)(=O)Nc1cc([C@@H](O)CNCCCCCCCCCN2C3CCC2CC(OC(=O)Nc2ccccc2-c2ccc(O)c(Cl)c2)C3)ccc1O (some centres not stated)
## Result 7.8

## Task Write down microsomal CLint measured for item "CS(=O)(=O)Nc1cc([C@@H](O)CNCCCCCCCCCN2CCC(OC(=O)Nc3ccccc3-c3cc(O)cc(F)c3)CC2)ccc1O"
## Result 4

----------
# key: entry, value: microsomal CLint
# experimental protocol: Intrinsic clearance in human liver microsomes assessed as glucuronidation in absence of NADPH and presence of microsomal activator Brij58 and UDPGA
All answers are understood in µL/min/mg, so give the number only.

{"molecular string": "Cc1ccc(NC(=O)OC2CCN(CCCCCCCCCNC[C@H](O)c3ccc(O)c(NS(C)(=O)=O)c3)CC2)c(-c2ccc(O)c(Cl)c2)c1", "microsomal CLint [µL/min/mg]": 22}
{"molecular string": "CS(=O)(=O)Nc1cc([C@@H](O)CNCCCCCCCCCN2CCC(OC(=O)Nc3ccccc3-c3cccc(O)c3)CC2)ccc1O", "microsomal CLint [µL/min/mg]": 26}
{"molecular string": "CS(=O)(=O)Nc1cc([C@@H](O)CNCCCCCCCCCN2C[C@@H]3[C@@H](COC(=O)Nc4ccccc4-c4ccc(O)c(Cl)c4)[C@@H]3C2)ccc1O", "microsomal CLint [µL/min/mg]": 7}
{"molecular string": "CS(=O)(=O)Nc1cc([C@@H](O)CNCCCCCCCCCN2CCC(OC(=O)Nc3ccccc3-c3ccc(O)c(F)c3)CC2)ccc1O", "microsomal CLint [µL/min/mg]": 16}
{"molecular string": "CS(=O)(=O)Nc1cc([C@@H](O)CNCCc2ccc(OCCCN3CCC(OC(=O)Nc4ccccc4-c4ccc(O)c(Cl)c4)CC3)cc2)ccc1O", "microsomal CLint [µL/min/mg]": 33}

## Task Write down microsomal CLint measured for item "CS(=O)(=O)Nc1cc([C@@H](O)CNCCCCCCCCCCN2CCC(OC(=O)Nc3ccccc3-c3ccc(O)c(Cl)c3)CC2)ccc1O"
## Result 34

## Task Write down microsomal CLint measured for item "CS(=O)(=O)Nc1cc([C@@H](O)CNCCCCCCCCCN2CCC(OC(=O)Nc3ccccc3-c3cc(O)cc(F)c3)CC2)ccc1O"
## Result 28
